- experimental-target: T1, p2S (p2 peptide biotinylated through its free cysteine) (human, also: biotinylated (maleimide PEO2-biotin) on one of the two Cys, which one not given here)
- T1 construct: The peptide has two cysteines; also called b-p2S
- T1 peptide: RPRYACCPGWKRT
- experimental-details: SPR (BIAcore-2000), IgG injected over immobilized p2S peptide;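 further: CM5 chip with immobilized peptide, IgG at 0.5–1000 nM in PBST, 3 min association and 3.5 min dissociation, reference-cell subtracted, rates fitted by 1:1 Langmuir model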
Where no end group is shown, it is not given here.
measurement-label: koff (s⁻¹)
Number only, in s⁻¹; omit the unit.

QUERY: Give its koff value. Item: 4F11.v2 IgG (antibody, name in Kabat numbering, V domains shown, IgG; Kabat numbering) VH: EVQLVESGGGLVQPGGSLRLSCAASGHTFTTYGMSWVRQAPGKGLEWVGWINTHSGVPTYADDFKGRFTISRDNSKNTTYLQMNSLRAEDTAVYYCARLGSSAVDYWGQGTLVTVSS VL: DIQMTQSPSSLSASVGDRVTITCKASQSVDYDGDSYMSWYQQKPGKAPKLLIYGASNLESGVPSRFSGSGSGTDFTLTISSLQPEDFATYYCQQNNEDPYTFGQGTKVEIKR
RESULT: 0.00291

QUERY: Give its koff value. Item: 4F11.v6 IgG (antibody, V domains shown, IgG; Kabat numbering) VH: EVQLVESGGGLVQPGGSLRLSCAASGHTFTTYGMSWVRQAPGKGLEWVGWINTHSGVPTYADDFKGRFTISRDNSKNTVYLQMNSLRAEDTAVYYCARLGSSAVDYWGQGTLVTVSS VL: DIQMTQSPSSLSASVGDRVTITCKASQSVDYDGDSYMSWYQQKPGKAPKLLIYGASYLESGVPSRFSGSGSGTDFTLTISSLQPEDFATYYCQQNNEDPYTFGQGTKVEIK
RESULT: 0.0024

QUERY: Give its koff value. Item: 4F11.v4 IgG (antibody, V domains shown, IgG; Kabat numbering) VH: EVQLVESGGGLVQPGGSLRLSCAASGHTFTTYGMSWVRQAPGKGLEWVGWINTHSGVPTYADDFKGRFTISRDNSKNTVYLQMNSLRAEDTAVYYCARLGSSAVDYWGQGTLVTVSS VL: DIQMTQSPSSLSASVGDRVTITCKASQSVDYRGDSYMSWYQQKPGKAPKLLIYGASNLESGVPSRFSGSGSGTDFTLTISSLQPEDFATYYCQQNNEDPYTFGQGTKVEIK
RESULT: 0.00314
